Value source: PubChem BioAssay (NCATS)

System: MKL-1
Test: qHTS assay to identify novel small-molecules to repurpose for Merkel cell carcinoma treatment (AID 1296009); further: nearly all actives have a fitted effect of over 60% in size
Details: MCC and control cell lines, CellTiter-Glo viability, 72 h; series mostly up to 46 µM
Results filed as inconclusive are left out. Active and inactive are the calls of the source. The call rests on the fitted dose curve; in most records, active means well fitted inhibition curve with a large enough effect; inconclusive means small, poorly fitted or top-dose-only effect; inactive means flat fitted curve, though single readings scatter.
Outcome field: choose from active, inactive

Q) Please let me know the test result on file for CCOC(=O)n1ccn(C)c1=S .
A) inactive

Q) And CCN(CCCCOC(=O)c1ccc(OC)c(OC)c1)C(C)Cc1ccc(OC)cc1 (configuration not stated) ?
A) inactive

Q) And NC[C@H]1O[C@H](O[C@H]2[C@H](O)[C@@H](O[C@H]3O[C@H](CO)[C@@H](O)[C@H](N)[C@H]3O)[C@H](N)C[C@@H]2N)[C@H](N)[C@@H](O)[C@@H]1O ?
A) inactive

Q) And Cc1c(C)n(CCN(C)C)c2ccc(C(=O)OCCN(C)C)cc12 ?
A) inactive

Q) And COC(=O)CCc1ccc(OCC(O)CNC(C)C)cc1 (configuration not stated) ?
A) inactive

Here is the next item to consider.
Q) Please let me know the test result on file for OC[C@@H](O)[C@@H](O[C@@H]1O[C@H](CO)[C@H](O)[C@H](O)[C@H]1O)[C@H](O)[C@@H](O)CO .
A) inactive

---

Test system: CP335
Assay: qHTS profiling for inhibitors of Plasmodium falciparum proliferation (AID 504749); further: nearly all actives have a fitted effect of over 60% in size
Conditions: P. falciparum in erythrocytes, SYBR Green DNA, 72 h; series mostly up to 28.7 µM
Results filed as inconclusive are left out. Calls of active or inactive are those of the source. The call rests on the fitted dose curve; in most records, active means well fitted inhibition curve with a large enough effect; inconclusive means small, poorly fitted or top-dose-only effect; inactive means flat fitted curve, though single readings scatter.
Outcome field: choose from active, inactive

Use the examples below as a reference point.
Q) Please let me know the test result on file for NCCc1ccn[nH]1 .
A) inactive

Q) And CCOc1ccc(NC(=O)CC(C)O)cc1 (configuration not stated) ?
A) inactive

Q) And CC(C)(C)CC(C)(C)c1ccc(OCCOCC[N+](C)(C)Cc2ccccc2)cc1 ?
A) active

Q) And CC(C)COC(=O)OCN1C(=O)CN(CCN2CC(=O)N(COC(=O)OCC(C)C)C(=O)C2)CC1=O ?
A) inactive

Q) And CC(C)(C(=O)c1cccnc1)c1cccnc1 ?
A) inactive

More entries:
Q) Please let me know the test result on file for CC(=O)Oc1ccc(C(=C2CCCCC2)c2ccc(OC(C)=O)cc2)cc1 .
A) inactive

Q) And CCCCOc1cc(C(=O)NCCN(CC)CC)c2ccccc2n1 ?
A) inactive

---

Tested on: 7G8
Experiment: qHTS profiling for inhibitors of Plasmodium falciparum proliferation (AID 504749); further: nearly all actives have a fitted effect of over 60% in size
Settings: P. falciparum in erythrocytes, SYBR Green DNA, 72 h; series mostly up to 28.7 µM
Records with an inconclusive call do not appear. The source made the active and inactive calls. Calls follow the shape of the dose curve; as a rule, active = well fitted inhibition curve with a large enough effect; inconclusive = small, poorly fitted or top-dose-only effect; inactive = flat fitted curve, though single readings scatter.
Outcome field: choose from active, inactive

Use the examples below as a reference point.
Q) Please let me know the test result on file for CC(C)(C)CC(C)(C)c1ccc(OCCOCC[N+](C)(C)Cc2ccccc2)cc1 .
A) active

Q) And CCCCCC=CCC=CCCCCCCCC(=O)OCC ?
A) inactive

Q) And CC(=O)Oc1ccc(C(=C2CCCCC2)c2ccc(OC(C)=O)cc2)cc1 ?
A) inactive

Q) And C[C@@H]1C(=O)NC2=Nc3cccc(Cl)c3CN21 ?
A) inactive

Q) And CC(=O)Nc1c(I)cc(I)c(C(=O)O)c1I ?
A) inactive

Q) And O=C(O)c1cc2cc(Cc3cccnc3)ccc2o1 ?
A) inactive

More entries:
Q) Please let me know the test result on file for Nc1ccc(/C=C/c2ccc(N)cc2S(=O)(=O)O)c(S(=O)(=O)O)c1 .
A) inactive

Q) And NC(CO)(CO)CO ?
A) inactive

Q) And CCN(CC)C(=O)/C(C#N)=C/c1cc(O)c(O)c([N+](=O)[O-])c1 ?
A) active

Q) And CC(C)COC(=O)OCN1C(=O)CN(CCN2CC(=O)N(COC(=O)OCC(C)C)C(=O)C2)CC1=O ?
A) inactive

Q) And c1ccc(-c2ccc(C(c3ccccc3)n3ccnc3)cc2)cc1 (stereo not drawn) ?
A) active

Q) And NC(CS)C(=O)O (stereo not drawn) ?
A) active

Q) And CN(C(=O)CN(CCO)CC(=O)N(C)C(C)(C)Cc1ccccc1)C(C)(C)Cc1ccccc1 ?
A) active
